Where do the numbers come from? From ChEMBL document CHEMBL5126569.

# Tested on: Severe acute respiratory syndrome coronavirus 2
# Assay text: Inhibition of N-terminal His-tagged SARS-CoV2 nsp3 Mac1 (205 to 379 residues) expressed in Escherichia coli BL21 (DE3) assessed as thermal shift at 300 uM in the presence of ADP-ribose by differential scanning fluorimetry analysis
We use 1 °C as the dividing line for ΔTm: on or above the line is rule met, below is rule not met.

Before answering, review these 3 worked examples.
O=C(O)C1CCN(c2ncnc3[nH]ccc23)CC1 ... rule met
COC(=O)[C@@H]1CCC[C@@H]1Nc1ncnc2[nH]ccc12 ... rule met
O=C(O)[C@@H]1CCC[C@@H]1Nc1ncnc2[nH]ccc12 ... rule met

Is ΔTm for COC(=O)[C@H](Cc1c[nH]c2ccccc12)Nc1ncnc2[nH]ccc12 at or above 1 °C? rule not met

Next entry: Nc1ncnc2c1ncn2[C@@H]1O[C@H](CO[P@](=O)(O)O[P@](=O)(O)OC[C@H]2O[C@@H](O)[C@H](O)[C@@H]2O)[C@@H](O)[C@H]1O rule met

Next entry: O=C(O)[C@H](Cc1c[nH]c2ccccc12)Nc1ncnc2[nH]ccc12 rule met

---

# Assay text: Inhibition of N-terminal 6His-tagged SARS-CoV2 nsp3 Mac1 (200 to 380 residues) expressed in Escherichia coli BL21 (DE3)
# Set-up: species or system Severe acute respiratory syndrome coronavirus 2
Measured endpoint: pIC50
For clarity, pIC50 is expressed as the negative log10 of concentration in mol/L.

Requested field: pIC50. Item: Cc1nc(Nc2ncc(C(=O)Nc3c(C)cccc3Cl)s2)cc(N2CCN(CCO)CC2)n1 [DASATINIB] 4.30

Next entry: N/N=c1\[nH][nH]/c(=N\N)c2ccccc12 [DIHYDRALAZINE] 3.30
